stated.conditions: human
The following compounds are shown together with reported Hepatotoxicity (cytolytic) values.
experimental.endpoint: Hepatotoxicity (cytolytic)

# compound, value.measured
measured = [
    ("CN1C[C@H](CC#N)C[C@@H]2c3cccc4[nH]c(Cl)c(c34)C[C@H]21 [LERGOTRILE]", 4),
    ("C[C@]12C=CC(=O)C=C1CC[C@@H]1[C@@H]2[C@@H](O)C[C@@]2(C)[C@H]1CC[C@]2(O)C(=O)CO [PREDNISOLONE]", 2),
    ("NCC[C@H](O)C(=O)N[C@@H]1C[C@H](N)[C@@H](O[C@H]2O[C@H](CN)CC[C@H]2N)[C@H](O)[C@H]1O[C@H]1O[C@H](CO)[C@@H](O)[C@H](N)[C@H]1O [ARBEKACIN]", 0),
    ("CN(C)CCCN1c2ccccc2Sc2ccc(Cl)cc21 [CHLORPROMAZINE]", 13),
]

====

stated.conditions: human, Liver
The following compounds are shown together with reported Hepatotoxicity (severe hepatitis) values.

# compound, Hepatotoxicity (severe hepatitis)
records = [
    ("N[C@@H]1[C@H]2CN(c3nc4c(cc3F)c(=O)c(C(=O)O)cn4-c3ccc(F)cc3F)C[C@@H]12 [TROVAFLOXACIN]", 1),
    ("CCOC(=O)c1cncn1[C@H](C)c1ccccc1 [ETOMIDATE]", 0),
    ("CCn1cc(C(=O)O)c(=O)c2cc(F)c(N3CCN(C)CC3)cc21 [PEFLOXACIN]", 0),
    ("CN(C)Cc1ccc(CSCCN/C(=C\\[N+](=O)[O-])NCc2ccc3c(c2)OCO3)o1 [NIPEROTIDINE]", 2),
    ("CC1=C(C(=O)O)N2C(=O)[C@@H](NC(=O)[C@H](N)c3ccc(O)cc3)[C@H]2SC1 [CEFADROXIL]", 0),
    ("Cc1c(F)c(N2CCNC(C)C2)cc2c1c(=O)c(C(=O)O)cn2C1CC1 (stereo not given) [GREPAFLOXACIN]", 0),
    ("C=CCOc1ccccc1OCC(O)CNC(C)C (stereo not given) [OXPRENOLOL]", 0),
    ("Cc1cnc(NC(=O)C2=C(O)c3ccccc3S(=O)(=O)N2C)s1 [MELOXICAM]", 0),
    ("Cc1nnc(SCC2=C(C(=O)O)N3C(=O)[C@@H](NC(=O)Cn4cnnn4)[C@H]3SC2)s1 [CEFAZOLIN]", 0),
    ("Nc1ccc(S(=O)(=O)Nc2ccccn2)cc1 [SULFAPYRIDINE]", 0),
    ("O=C(O)COc1nn(Cc2ccccc2)c2ccccc12 [BENDAZAC]", 0),
    ("NNCCc1ccccc1 [PHENELZINE]", 7),
    ("Cc1c(N(C)C)c(=O)n(-c2ccccc2)n1C [AMINOPYRINE]", 2),
    ("COc1cc(Cc2cnc(N)nc2N)cc(OC)c1OC [TRIMETHOPRIM]", 1),
    ("CCN(CC)Cc1cc(Nc2ccnc3cc(Cl)ccc23)ccc1O.Cl", 8),
    ("Cc1noc(NS(=O)(=O)c2ccc(N)cc2)c1C [SULFISOXAZOLE]", 1),
    ("CCCCNc1cc(C(=O)O)cc(S(N)(=O)=O)c1Oc1ccccc1 [BUMETANIDE]", 0),
    ("C=C[C@H]1C[N@@]2CC[C@H]1C[C@H]2[C@H](O)c1ccnc2ccc(OC)cc12 [QUININE]", 0),
    ("CCO.CN1CCC[C@H]1c1cccnc1", 0),
    ("O=C(O)C[C@H](O)C[C@H](O)/C=C/c1c(C2CC2)nc2ccccc2c1-c1ccc(F)cc1 [PITAVASTATIN]", 0),
]
